All figures here come from PubChem BioAssay (NCI).

test system: SK-MEL-5 melanoma; test: NCI-60 one-dose screen, 48 h (100 = growth as untreated, 0 = no growth, -100 = all killed); conditions: 10 µM unless noted
The panel holds about 83,000 compounds, 20% with a hit somewhere; the sample as a whole holds those more often.
growth less than 90% is 1 (yes); growth greater than or equal to 90% is 0 (no).

Some solved entries appear below for comparison.
State whether 90% exceeds growth recorded for Brc1ccc(Nc2nc(Nc3cnc4ccccc4c3)c3[nH]cnc3n2)cc1 .
1 (yes)

Can you check CSc1ccc2c3c(n(C[C@H](O)CO)c(=O)c2c1)-c1ccccc1C3=O next?
1 (yes)

Can you check Nc1[nH]nc2nc(-c3ccccc3)n3c4ccccc4nc3c12 next?
0 (no)

Can you check COC12C=C/C(=C(/C(=O)OCCSc3ccnn3C)C(=O)CCCCCCCCC3(OC)C=C/C(=C(/C(=O)OCCSc4ccnn4C)C(=O)CCCCCCCC1)O3)O2 next?
1 (yes)

More entries:
State whether 90% exceeds growth recorded for O=S(O)c1cc(Cl)cc(Cl)c1OCc1ccccc1 .
0 (no)

Can you check COC(=O)[C@]1(C)CCC[C@]2(C)[C@H]3C[C@@H]4[C@H]5[C@@H]6CC/C(=N\OCC/C(N)=N/O)[C@H]5[C@@]3(CC[C@H]21)CC4(C(C)C)O6 next?
1 (yes)

Can you check O=C(c1cccc(N2CCOCC2)n1)c1c[nH]c2ccccc12 next?
0 (no)

Can you check Clc1ccc2nn3c4ccccc4c(OCCN4CCOCC4)nc3c2c1 next?
1 (yes)

Can you check CN(C)CCCC1(c2ccc(F)cc2)OCc2cc(-c3csc4ccccc34)ccc21 (stereo not given) next?
1 (yes)

Can you check COc1ccc(C/C(C)=C(\c2ccc(O)cc2)c2ccc(OCCN3CCCCC3)cc2)cc1 next?
1 (yes)

Can you check C=C(c1ccc(C(=O)O)c(F)c1)c1cc2c(cc1C)C(C)(C)CCC2(C)C next?
1 (yes)

Can you check COc1ccc(C2CC(n3ccnc3)c3cc(OC)c(OC)c(OC)c32)cc1O (stereo not given) next?
1 (yes)

---

test system: EKVX NSCLC; assay: NCI-60 one-dose screen, 48 h (100 = growth as untreated, 0 = no growth, -100 = all killed); conditions: 10 µM unless noted
The panel holds about 83,000 compounds, 20% with a hit somewhere; the sample as a whole holds those more often. Active and inactive are the calls of the source. Rule for the calls: active = growth percent below 10; inactive = the rest.
Reported growth by item:

Report growth for COc1cc(/C=C2\C(=O)N(CCCOc3cc(O)c4c(=O)cc(-c5ccccc5)oc4c3)c3ccccc32)cc(OC)c1O please.
88.4% (inactive)

More entries:
Report growth for O=[N+]([O-])c1c(O)c(Cl)cc(Cl)c1Cl please.
107% (inactive)

Can you check CCC(C)(C)c1ccc(Nc2ccc(Nc3ccc(C(C)(C)CC)cc3)cc2)cc1 next?
98.6% (inactive)

Can you check CCCOC(=O)Nc1nc2ccc(SCC)cc2s1 next?
94.3% (inactive)

Can you check COc1ccc2[nH]cc(-c3nonc3-c3c[nH]c4ccc(Br)cc34)c2c1 next?
29.9% (inactive)

Can you check O=Nc1ccc(NC(=O)Nc2ccc([N+](=O)[O-])cc2)cc1 next?
96% (inactive)

Can you check O=C(Nc1ccc(Oc2cccc(Cl)c2)c(Cl)c1)c1cccnn1 next?
87.3% (inactive)

Can you check Cc1ccc2c(c1)sc1nc(-c3c[nH]c4ccccc34)c(Nc3ccccc3)n12 next?
101% (inactive)

Can you check C=C1C(=O)O[C@H]2[C@H]1CC/C(COC(=O)C(=O)c1c[nH]c3ccc(Cl)cc13)=C\CC[C@@]1(C)O[C@@H]21 next?
-73.6% (active)

Can you check COc1ccc(C(O)c2cc3c(N)c(C(=O)Nc4cccc5ccccc45)sc3nc2C)cc1 (stereo not given) next?
41.8% (inactive)

---

test system: LOX IMVI melanoma; experiment: NCI-60 one-dose screen, 48 h (100 = growth as untreated, 0 = no growth, -100 = all killed); conditions: 10 µM unless noted
About 83,000 compounds went through this panel and 20% of them were active in at least one assay; those are over-represented in the sample as a whole. Active and inactive are the calls of the source. How the source made its calls: active means growth percent below 10; inactive means the rest.
Reported growth by item:

See these solved cases before continuing.
Report growth for C=C1SC(=Nc2ccccc2Cl)N(C(=O)c2sc3ccccc3c2Cl)C1(C)C please.
77.3% (inactive)

Can you check O=C(/C=C/c1ccccc1Cl)c1cccc(OCCCCOc2cccc(C(=O)/C=C/c3ccccc3Cl)c2)c1 next?
102% (inactive)

Can you check COc1ccc(/C=C2\c3cc(OC)c(OC)c(OC)c3CC[C@@H]2O)cc1F next?
37.3% (inactive)

Can you check c1cc(OCCN2CCCC2)ccc1CNc1ccc2nc(CCC3CCCCC3)[nH]c2c1 next?
-78.5% (active)

Can you check Cc1oc(-c2ccc(Cl)cc2)nc1C1=NN(C(=O)c2ccncc2)C(c2ccccc2)C1 (stereo not given) next?
92.7% (inactive)

Can you check Cc1c2ncccc2nc2[nH]c3ccc(OCCN(C)C)cc3c12 next?
18% (inactive)

Can you check Fc1cccc(-c2nc(-c3c[nH]c4ncccc34)cs2)c1 next?
74.3% [100 µM] (inactive)

Can you check O=C(Nc1ccc(Oc2cccc(Cl)c2)c(Cl)c1)c1cccnn1 next?
88.5% (inactive)

Can you check COc1ccc(C2CC(n3ccnc3)c3cc(OC)c(OC)c(OC)c32)cc1O (stereo not given) next?
86.4% (inactive)

Kindly consider the entry below.
Report growth for O=C(/C=C/c1cccc(Oc2ccccc2)c1)c1ccc(Nc2nc(Nc3ccc(F)cc3)nc(Nc3ccc(Cl)cc3)n2)cc1 please.
108% (inactive)

---

Test system: NCI/ADR-RES ovarian
Assay: NCI-60 one-dose screen, 48 h
Conditions: 10 µM unless noted
Description: Growth inhibition of the NCI/ADR-RES human […] tumor cell line is measured as a screen for anti-cancer activity. Cells are grown in 96 well plates and exposed to the test compound for 48 hours. Compounds are tested at a single concentration, which is 10^-5 M for most compounds. The reported endpoint is percent growth (GI% or GIPRCNT), where numbers from 0 - 100% represent growth inhibition, and numbers from -100% - 0 represent cell death. For example, a value of 40 represents 60% growth inhibition. […]
About 83,000 compounds went through this panel and 20% of them were active in at least one assay; those are over-represented in the sample as a whole. Calls of active or inactive are those of the source. The calls were made as follows: active = growth percent below 10; inactive = the rest.
// classify into active, inactive

Per the assay record, what outcome was assigned to COc1ccc(C/C(C)=C(\c2ccc(O)cc2)c2ccc(OCCN3CCCCC3)cc2)cc1 ?
inactive

Can you check O=C1NC(=O)C(c2coc3cc(Br)ccc23)=C1c1c[nH]c2ccccc12 next?
inactive

Can you check CCOC(=O)NCCCC(=O)NCCc1ccccc1 next?
inactive

Can you check C=C(c1ccc(C(=O)O)c(F)c1)c1cc2c(cc1C)C(C)(C)CCC2(C)C next?
inactive

Can you check COc1cc(/C=C/c2cc(/C=C/c3ccc(O)c(OC)c3)n(C(=O)Nc3ccc(Cl)cc3)n2)ccc1O next?
inactive

Can you check CN(C)c1ccc([C@@H](C(=O)Nc2cccc([N+](=O)[O-])c2)N(C(=O)c2cc3ccccc3[nH]2)c2cccc([N+](=O)[O-])c2)cc1 next?
inactive

Can you check CN(C)CCCC1(c2ccc(F)cc2)OCc2cc(-c3csc4ccccc34)ccc21 (stereo not drawn) next?
inactive

Can you check Nc1nc2ccccc2c2c(=O)c3cc(Cl)ccc3sc12 next?
inactive

Can you check C#CCOc1cccc(Nc2ncnc3cc(NC(=O)CCl)ccc23)c1 next?
active

Can you check OC1CSSC1Cn1cnc2c(Nc3ccc(OCc4cccc(F)c4)c(Cl)c3)ncnc21 (stereo not drawn) next?
active

Can you check O=S(O)c1cc(Cl)cc(Cl)c1OCc1ccccc1 next?
inactive

Can you check c1cc(OCCCCCOc2cccc(-c3nc4ccccc4[nH]3)c2)cc(-c2nc3ccccc3[nH]2)c1 next?
active

Can you check Nc1[nH]nc2nc(-c3ccccc3)n3c4ccccc4nc3c12 next?
inactive

Can you check O=Nc1ccc(NC(=O)Nc2ccc([N+](=O)[O-])cc2)cc1 next?
inactive

Can you check N#Cc1c(-c2cccc(Cl)c2)cc(-c2cccnc2)[nH]c1=O next?
inactive

---

Reported growth by item:
test system: SW-620 colon; experiment: NCI-60 one-dose screen, 48 h (100 = growth as untreated, 0 = no growth, -100 = all killed); details: 10 µM unless noted
About 83,000 compounds went through this panel and 20% of them were active in at least one assay; those are over-represented in the sample as a whole.
Reply with just the number (in %).

See these solved cases before continuing.
Report growth for CC[C@H](Nc1nc(N)nc(C)c1C#N)c1nc2cccc(CN(C)c3ncc(C(=O)NO)cn3)c2c(=O)n1-c1ccccc1 please.
3.51

Can you check N#CSc1c[nH]c2ccc(/C=C/C(=O)/C=C(O)/C=C/c3ccc4[nH]cc(SC#N)c4c3)cc12 next?
9.56

Can you check COc1ccc(OC)c(Nc2nnc(-c3cc(OC)c(OC)c(OC)c3)o2)c1 next?
108

Can you check CC(=O)O[C@H]1CC[C@]2(C)[C@H]3CC=C4[C@@H]5CC(C)(C)CC[C@]5(C(=O)N5CCN(CCC#N)CC5)CC[C@@]4(C)[C@]3(C)CC[C@H]2C1(C)C next?
19.4

Can you check Nc1cc(C(=O)O)cc(-n2c(O)c(C=C3N=c4ccccc4=N3)sc2=S)c1 next?
96.8

Kindly consider the entry below.
Report growth for Nc1nc(N(Cc2ccccc2)c2ccccc2)c2cn[nH]c2n1 please.
25
